Just for reference, IntAct's records for PubMed 9264463 is where these values come from.

B1: Catenin alpha-1 (Mus musculus), P26231 (parent)
chain: MTAVHAGNINFKWDPKSLEIRTLAVERLLEPLVTQVTTLVNTNSKGPSNKKRGRSKKAHVLAASVEQATENFLEKGDKIAKESQFLKEELVVAVEDVRKQGDLMKSAAGEFADDPCSSVKRGNMVRAARALLSAVTRLLILADMADVYKLLVQLKVVEDGILKLRNAGNEQDLGIQYKALKPEVDKLNIMAAKRQQELKDVGNRDQMAAARGILQKNVPILYTASQACLQHPDVAAYKANRDLIYKQLQQAVTGISNAAQATASDDAAQHQGGSGGELAYALNNFDKQIIVDPLSFSEERFRPSLEERLESIISGAALMADSSCTRDDRRERIVAECNAVRQALQDLLSEYMGNAGRKERSDALNSAIDKMTKKTRDLRRQLRKAVMDHVSDSFLETNVPLLVLIEAAKNGNEKEVKEYAQVFREHANKLIEVANLACSISNNEEGVKLVRMSASQLEALCPQVINAALALAAKPQSKLAQENMDLFKEQWEKQVRVLTDAVDDITSIDDFLAVSENHILEDVNKCVIALQEKDVDGLDRTAGAIRGRAARVIHVVTSEMDNYEPGVYTEKVLEATKLLSNTVMPRFTEQVEAAVEALSSDPAQPMDENEFIDASRLVYDGIRDIRKAVLMIRTPEELDDSDFETEDFDVRSRTSVQTEDDQLIAGQSARAIMAQLPQEQKAKIAEQVASFQEEKSKLDAEVSKWDDSGNDIIVLAKQMCMIMMEMTDFTRGKGPLKNTSDVISAAKKIAEAGSRMDKLGRTIADHCPDSACKQDLLAYLQRIALYCHQLNICSKVKAEVQNLGGELVVSGVDSAMSLIQAAKNLMNAVVQTVKASYVASTKYQKSQGMASLNLPAVSWKMKAPEKKPLVKREKQDETQTKIKRASQKKHVNPVQALSEFKAMDSI

variants of: B1; settings: with ctnb1_human CTNNB1, P35222
Sequence (P35222 whole entry): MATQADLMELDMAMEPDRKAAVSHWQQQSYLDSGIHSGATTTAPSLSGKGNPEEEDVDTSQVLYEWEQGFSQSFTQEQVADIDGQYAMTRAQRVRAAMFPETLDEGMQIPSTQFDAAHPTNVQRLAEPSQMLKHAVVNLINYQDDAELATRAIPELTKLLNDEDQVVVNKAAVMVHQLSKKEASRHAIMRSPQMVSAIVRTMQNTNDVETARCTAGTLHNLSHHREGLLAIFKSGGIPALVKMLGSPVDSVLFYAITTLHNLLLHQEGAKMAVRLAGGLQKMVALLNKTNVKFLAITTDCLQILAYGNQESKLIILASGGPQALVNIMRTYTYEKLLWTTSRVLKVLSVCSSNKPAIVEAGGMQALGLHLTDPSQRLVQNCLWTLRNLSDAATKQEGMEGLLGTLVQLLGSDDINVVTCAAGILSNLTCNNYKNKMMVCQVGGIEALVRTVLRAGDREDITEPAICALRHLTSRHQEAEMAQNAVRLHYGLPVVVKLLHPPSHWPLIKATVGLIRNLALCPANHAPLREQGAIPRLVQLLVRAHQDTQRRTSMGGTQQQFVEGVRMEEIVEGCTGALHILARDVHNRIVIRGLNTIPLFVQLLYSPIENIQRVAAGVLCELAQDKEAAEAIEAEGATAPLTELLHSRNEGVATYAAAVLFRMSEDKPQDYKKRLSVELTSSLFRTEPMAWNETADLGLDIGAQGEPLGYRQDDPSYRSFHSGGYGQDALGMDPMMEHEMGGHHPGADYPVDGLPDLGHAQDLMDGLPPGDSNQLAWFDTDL
ENDPOINT NAME: effect of a mutation on the interaction

{"columns": ["VARIANT NOTATION", "OBSERVED"],
 "data": [
  ["V125A", "decreasing interaction"],
  ["R137A", "decreasing interaction"],
  ["S133A", "increasing interaction"],
  ["R126A", "increasing interaction"],
  ["L141A", "decreasing interaction"],
  ["L131A", "decreasing interaction"],
  ["A142S", "decreasing interaction"],
  ["L138A", "decreasing interaction"]
]}

Which effect of a mutation on the interaction value belongs to `L139A` ?
decreasing interaction

Proceed to `V135A`
decreasing interaction

Proceed to `L132A`
decreasing interaction

Proceed to `R129A`
increasing interaction

Proceed to `T136A`
increasing interaction
